src = patent US5767149A

# ASSAY_SUMMARY: physchem
# Type: physicochemical
# PARTICULARS: water, pH 7
# remaining at 21 h, 70 µM per entry
Write the value in % as a bare number.

| STRUCTURE_SMILES | READING |
| --- | --- |
| O=C1O[C@H]([C@@H](O)CO)C(O)=C1O | 2 |
| O=C1O[C@H]([C@@H](O)CO)C(O)=C1O[C@H]1O[C@H](CO)[C@@H](O)[C@H](O)[C@H]1O | 100 |

Please look up its remaining at 21 h, 70 µM: "O=C1O[C@H]([C@@H](O)CO[C@H]2O[C@H](CO)[C@@H](O)[C@H](O)[C@H]2O)C(O)=C1O"
8

###

# ASSAY_SUMMARY: physchem
# Format: physicochemical
# PARTICULARS: water, pH 7
# remaining at 0.5 h, 70 µM per entry
Write the value in % as a bare number.

| STRUCTURE_SMILES | READING |
| --- | --- |
| O=C1O[C@H]([C@@H](O)CO)C(O)=C1O | 20 |

Please look up its remaining at 0.5 h, 70 µM: "O=C1O[C@H]([C@@H](O)CO)C(O)=C1O[C@H]1O[C@H](CO)[C@@H](O)[C@H](O)[C@H]1O"
100

Please look up its remaining at 0.5 h, 70 µM: "O=C1O[C@H]([C@@H](O)CO[C@H]2O[C@H](CO)[C@@H](O)[C@H](O)[C@H]2O)C(O)=C1O"
36

###

# ASSAY_SUMMARY: physchem
# Assay type: physicochemical
# PARTICULARS: water, pH 7
# Experimental: (c) 2-O-α-D-Glucosyl-L-ascorbic acid was compared respectively to the 6-O-α-D-glucosyl-L-ascorbic acid disclosed in Japanese Patent Publication No. 38,158/73, and L-ascorbic acid for their stability in aqueous solution. More particularly, each sample was adjusted to a concentration of 70 micromoles and to pH 7.0 or 2.0, placed in a cuvette, and measured for its absorbance at either 260 nm and pH 7.0 or at 245 nm and pH 2.0 while keeping the solution at 20° C. […]
READOUT: remaining at 0.25 h, 70 µM (%)
Write the value in % as a bare number.

Some solved cases for reference:
| STRUCTURE_SMILES | READOUT | VALUE_UNITS | READING |
| --- | --- | --- | --- |
| O=C1O[C@H]([C@@H](O)CO[C@H]2O[C@H](CO)[C@@H](O)[C@H](O)[C@H]2O)C(O)=C1O | remaining at 0.25 h, 70 µM | % | 58 |
| O=C1O[C@H]([C@@H](O)CO)C(O)=C1O | remaining at 0.25 h, 70 µM | % | 47 |

Please look up its remaining at 0.25 h, 70 µM: "O=C1O[C@H]([C@@H](O)CO)C(O)=C1O[C@H]1O[C@H](CO)[C@@H](O)[C@H](O)[C@H]1O"
100

###

# ASSAY_SUMMARY: physchem
# Assay type: physicochemical
# PARTICULARS: water, pH 2
READOUT: remaining at 0.25 h, 70 µM

Some solved cases for reference:
| MOLECULE | READOUT | READING |
| --- | --- | --- |
| O=C1O[C@H]([C@@H](O)CO[C@H]2O[C@H](CO)[C@@H](O)[C@H](O)[C@H]2O)C(O)=C1O [6-O-α-D-glucosyl-L-ascorbic acid] | remaining at 0.25 h, 70 µM | 99% |
| O=C1O[C@H]([C@@H](O)CO)C(O)=C1O [L-ascorbic acid] | remaining at 0.25 h, 70 µM | 99% |

Please look up its remaining at 0.25 h, 70 µM: O=C1O[C@H]([C@@H](O)CO)C(O)=C1O[C@H]1O[C@H](CO)[C@@H](O)[C@H](O)[C@H]1O [2-O-α-D-glucosyl-L-ascorbic acid]
100%
